FYI, the data here is from patent US9963467B2.

- Assay remarks: Serum stability of prodrugs, rat serum
- Type: in vitro ADME
- Condition details: prodrug, theoretical initial conc. 20 ug/mL
Reported endpoint: Conc. at t = 3 hr
Could you kindly put the unit after your number?

INSERT INTO measurements (molecule, reported_measurement) VALUES
  ('CSCC(=O)N[C@H]1Cc2cc(Cl)c(F)c(C(=O)OCOC(=O)C(C)C)c2OB1O [Compound 46]', '410 ng/mL'),
  ('CSCC(=O)N[C@H]1Cc2ccc(F)c(C(=O)OCOC(=O)c3ccccc3)c2OB1O [Compound 43]', '4580 ng/mL');

For the molecule CCC(=O)OCOC(=O)c1c(F)ccc2c1OB(O)[C@@H](NC(=O)CSC)C2 [Compound 16] , report Conc. at t = 3 hr. 0 ng/mL

Input CCOC(=O)OCOC(=O)c1c(F)ccc2c1OB(O)[C@@H](NC(=O)CSC)C2 [Compound 19] , output reported Conc. at t = 3 hr. 0 ng/mL

Identify Conc. at t = 3 hr associated with the molecule COc1ccc2c(c1C(=O)OCOC(=O)OC(C)C)OB(O)[C@@H](NC(=O)CSC)C2 [Compound 40] 740 ng/mL

Give reported Conc. at t = 3 hr value for CSCC(=O)N[C@H]1Cc2ccc(F)c(C(=O)OCOC(=O)C(C)(C)C)c2OB1O [Compound 18] 3290 ng/mL

* * *

- Assay remarks: Intravenous pharmacokinetics
- Assay type: in vivo
- Condition details: rat, plasma; rats, 20 mg/kg, intravenous infusion over 0.5 hours; read-out: Free Cl (converted)
Reported endpoint: clearance (mL/min/kg)
The reply should contain only the number, in mL/min/kg.

Please review the following examples before continuing.
INSERT INTO results (molecule, reported_measurement) VALUES
  ('O=C(Cc1cccs1)N[C@H]1Cc2cccc(C(=O)O)c2OB1O [I, reference compound]', 136),
  ('COc1ccc2c(c1C(=O)O)OB(O)[C@@H](NC(=O)Cc1cccs1)C2 [Compound 29]', 11.2),
  ('O=C(Cc1cccs1)N[C@H]1Cc2ccc(F)c(C(=O)O)c2OB1O [Compound 30]', 23),
  ('O=C(CSC1CNC1)N[C@H]1Cc2ccc(F)c(C(=O)O)c2OB1O [Compound 2]', 10.2),
  ('CSCC(=O)N[C@H]1Cc2ccc(F)c(C(=O)O)c2OB1O [Compound 1]', 14.2);

Okay, now this molecule:
Given O=C(CSC(F)F)N[C@H]1Cc2ccc(F)c(C(=O)O)c2OB1O [Compound 3] , respond with its clearance. 13

* * *

- Assay remarks: Serum stability of prodrugs, human serum
- Assay type: in vitro ADME
- Condition details: prodrug, theoretical initial conc. 20 ug/mL
Parameter threshold = 6000 ng/mL. Response is 1.0 when Conc. at t = 1 hr meets or exceeds it, else 0.0.

Some entries whose results are on file:
INSERT INTO results (chemical_string, assigned_category) VALUES
  ('CSCC(=O)N[C@H]1Cc2ccc(SC)c(C(=O)OCOC(=O)C(C)C)c2OB1O', 1.0),
  ('CSCC(=O)N[C@H]1Cc2ccc(F)c(C(=O)OCOC(=O)c3ccccc3)c2OB1O', 1.0),
  ('CCC(=O)OCOC(=O)c1c(F)ccc2c1OB(O)[C@@H](NC(=O)CSC)C2', 0.0),
  ('CSCC(=O)N[C@H]1Cc2ccc(F)c(C(=O)OCOC(=O)C(C)C)c2OB1O', 0.0),
  ('CSCC(=O)N[C@H]1Cc2ccc(F)c(C(=O)OCOC(=O)C(C)(C)C)c2OB1O', 1.0),
  ('COc1ccc2c(c1C(=O)OCOC(=O)OC(C)C)OB(O)[C@@H](NC(=O)CSC)C2', 1.0);

Now consider a different molecule.
Tell me whether Conc. at t = 1 hr is at least 6000 ng/mL here: "CSCC(=O)N[C@H]1Cc2cc(F)c(F)c(C(=O)OCOC(=O)C(C)C)c2OB1O" 0.0
